# assay-overview: self-splicing fitness, log relative to wild type (ln ratio); higher = more splicing; Tetrahymena group I intron in knt gene, E. coli kanamycin selection, DiMSum; sequences stand for … in CUCUCU…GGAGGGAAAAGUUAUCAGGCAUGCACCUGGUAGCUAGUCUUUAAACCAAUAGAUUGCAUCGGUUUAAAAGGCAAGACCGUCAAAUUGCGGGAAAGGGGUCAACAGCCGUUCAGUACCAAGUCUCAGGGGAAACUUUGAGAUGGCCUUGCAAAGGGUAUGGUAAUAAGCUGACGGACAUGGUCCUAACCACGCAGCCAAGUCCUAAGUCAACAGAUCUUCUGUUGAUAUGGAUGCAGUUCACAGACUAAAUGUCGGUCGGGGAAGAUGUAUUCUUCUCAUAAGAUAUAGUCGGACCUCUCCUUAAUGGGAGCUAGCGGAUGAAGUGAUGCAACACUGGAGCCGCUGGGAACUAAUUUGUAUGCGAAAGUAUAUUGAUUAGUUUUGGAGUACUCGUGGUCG;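 also: selection with 25 µg/mL kanamycin versus none on LB agar overnight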
# measurement-setup: 37 °C
Assignment: determine reported self-splicing fitness (ln) for the given sequences.

I'd like to know its self-splicing fitness (ln). The sequence in question is AACCAGCAAUAUUACGUGCG -0.365

Also check AAUCAGCAAUAUUACGAUAG -0.239

Item: UUUGAGCAAUAUUACGUGUU -3.3

Try AUACAGCAAUAUUACGUGAC next. -0.945

And what about the sequence AAUUAGCAAUAUUACGGUGA ? -0.534

What do we get for GUUAAGCAAUAUUACGCGCG ? 0.0623

What about AAUUAGCAAUAUUACGGUCG ? -0.259

And UUGAAGCAAUAUUACGUCCG ? 0.4
